Value source: paper PMC8222333

- system_name: dAsCas12a Ultra (Acidaminococcus sp., UniProt U2UMQ6 1-1307, M537R;F870L;D908A;E993A;D1235A)
- experiment_notes: Spec-seq (native PAGE EMSA with sequencing of bound and unbound); 25 mM Tris-HCl pH 7.4, 150 mM KCl, 5 mM MgCl2, 10% glycerol, 1 mM DTT, 40 ng/uL salmon sperm DNA; 400 nM Cas12a, 480 nM crRNA, 50 nM library, 37 C 1 h; native PAGE at room temperature; high values mean tight binding
- protocol_conditions: protein: recombinant
// values below are reported binding signal
measure: binding signal

* ACTC (dsDNA) DNA 1: GCTATCTAGTGCTCAGTACGCACTGACTCAGGAAACTTCTGGCAGGACCAGGTCATGAGATCGGAAGAGCACACGTCTGAACTCCAGTCA DNA 2: TGACTGGAGTTCAGACGTGTGCTCTTCCGATCTCATGACCTGGTCCTGCCAGAAGTTTCCTGAGTCAGTGCGTACTGAGCACTAGATAGC RNA: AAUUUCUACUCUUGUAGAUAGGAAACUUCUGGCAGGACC | -6.74 lnKA
* TTGT (dsDNA) DNA 1: GCTATCTAGTGCTCAGTACGCACTGTTGTAGGAAACTTCTGGCAGGACCAGGTCATGAGATCGGAAGAGCACACGTCTGAACTCCAGTCA DNA 2: TGACTGGAGTTCAGACGTGTGCTCTTCCGATCTCATGACCTGGTCCTGCCAGAAGTTTCCTACAACAGTGCGTACTGAGCACTAGATAGC RNA: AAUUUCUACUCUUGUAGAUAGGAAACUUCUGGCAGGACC | -7.79 lnKA
* GTTG (dsDNA) DNA 1: GCTATCTAGTGCTCAGTACGCACTGGTTGAGGAAACTTCTGGCAGGACCAGGTCATGAGATCGGAAGAGCACACGTCTGAACTCCAGTCA DNA 2: TGACTGGAGTTCAGACGTGTGCTCTTCCGATCTCATGACCTGGTCCTGCCAGAAGTTTCCTCAACCAGTGCGTACTGAGCACTAGATAGC RNA: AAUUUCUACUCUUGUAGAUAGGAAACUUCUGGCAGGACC | -5.6 lnKA
* AGGT (dsDNA) DNA 1: GCTATCTAGTGCTCAGTACGCACTGAGGTAGGAAACTTCTGGCAGGACCAGGTCATGAGATCGGAAGAGCACACGTCTGAACTCCAGTCA DNA 2: TGACTGGAGTTCAGACGTGTGCTCTTCCGATCTCATGACCTGGTCCTGCCAGAAGTTTCCTACCTCAGTGCGTACTGAGCACTAGATAGC RNA: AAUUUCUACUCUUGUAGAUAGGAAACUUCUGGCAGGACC | -8.68 lnKA
* CTTA (dsDNA) DNA 1: GCTATCTAGTGCTCAGTACGCACTGCTTAAGGAAACTTCTGGCAGGACCAGGTCATGAGATCGGAAGAGCACACGTCTGAACTCCAGTCA DNA 2: TGACTGGAGTTCAGACGTGTGCTCTTCCGATCTCATGACCTGGTCCTGCCAGAAGTTTCCTTAAGCAGTGCGTACTGAGCACTAGATAGC RNA: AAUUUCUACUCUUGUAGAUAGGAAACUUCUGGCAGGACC | -4.22 lnKA
